Collected set of log10 of IC50 measured with Protease (Human immunodeficiency virus 1, UniProt Q9YQ12) across studies.
All values: log10 IC50 [nM].

Worked cases, answers included:
1) CC1(C)CC(=O)C2=C(C1)Nc1ccccc1N(C(=O)C(=O)N1c3ccccc3NC3=C(C(=O)CC(C)(C)C3)C1c1ccccc1)C2c1ccccc1 (mixture of isomers; 5a) :: 1.48
2) O=C1OC(COc2cccc3ccccc23)(c2ccccc2)CC(O)=C1SCc1ccccc1 (racemic) :: 2.11
3) CC1(C)CC[C@]2(C(=O)O)CC[C@]3(C)C(=CC[C@@H]4[C@@](C)(CC(=O)O)[C@H](C(C)(C)C(=O)O)CC[C@]43C)[C@H]2C1 :: 3.59
4) CC(C)CN(C[C@@H](O)[C@H](Cc1ccccc1)NC(=O)[C@]12CC[C@@H](C)[C@H](C)[C@H]1C1=CC[C@@H]3[C@@]4(C)C[C@@H](O)[C@H](O)[C@@](C)(CO)[C@@H]4CC[C@@]3(C)[C@]1(C)CC2)S(=O)(=O)c1ccc([N+](=O)[O-])cc1 :: 2.23

q: Give the reported log10 of IC50 for this molecule. `CC1(C)CCC[C@](C)([C@H]2CC[C@]3(C)[C@@H]2[C@H](O)C[C@@H]2[C@@]4(C)CCC(=O)C(C)(C)[C@@H]4CC[C@]23C)O1`
a: 4.60
